# TARGET OR TEST SYSTEM: Androgen Receptor (Homo sapiens, UniProt P10275+P40337, T878A)
# Construct: Compounds have been evaluated in this assay in LNCaP and/or VCaP cells utilizing similar protocols; endogenous in cells; host or cells: LNCaP cells
# TEST SUMMARY: Androgen Receptor ELISA assay (PathScan AR ELISA) in LNCaP cells: AR degradation, Dmax and DC50
# Assay type: cell-based
# ASSAY CONDITIONS: concentration that caused 50% Androgen Receptor degradation
MEASURED ATTRIBUTE: DC50

{"columns": ["COMPOUND", "MEASUREMENT"],
 "data": [
  ["Cc1ncsc1-c1ccc(CNC(=O)[C@@H]2C[C@@H](O)CN2C(=O)[C@@H](NC(=O)CCCOCCN2CCC(c3ccc(N4C(=S)N(c5ccc(C#N)c(C(F)(F)F)c5)C(=O)C4(C)C)cc3)CC2)C(C)(C)C)cc1 [Example 309]", "> 501 nM"]
]}

Provide each entry's DC50 from the list below.
1. Cc1ncsc1-c1ccc([C@H](C)NC(=O)[C@@H]2C[C@@H](O)CN2C(=O)[C@@H](NC(=O)COCCCOCCCCCOc2ccc(N3C(=S)N(c4ccc(C#N)c(C(F)(F)F)c4)C(=O)C3(C)C)cc2)C(C)(C)C)cc1 [Example 4]
2. Cc1ncsc1-c1ccc(CNC(=O)[C@@H]2C[C@@H](O)CN2C(=O)[C@@H](NC(=O)COCCOc2ccc(N3C(=S)N(c4ccc(C#N)c(C(F)(F)F)c4)C(=O)C3(C)C)cc2)C(C)(C)C)cc1 [Example 236]
3. COc1cc(N2C(=O)C(C)(C)N(c3ccc(OCCCCCOCCCOCC(=O)N[C@H](C(=O)N4C[C@H](O)C[C@H]4C(=O)NCc4ccc(-c5scnc5C)cc4)C(C)(C)C)cc3)C2=S)ccc1C#N [Example 9]

< 50 nM
> 501 nM
< 50 nM

---

# TARGET OR TEST SYSTEM: Androgen Receptor (Homo sapiens, UniProt P10275)
# Construct: endogenous in cells; host or cells: VCaP cells
# Sequence (P10275 1-920): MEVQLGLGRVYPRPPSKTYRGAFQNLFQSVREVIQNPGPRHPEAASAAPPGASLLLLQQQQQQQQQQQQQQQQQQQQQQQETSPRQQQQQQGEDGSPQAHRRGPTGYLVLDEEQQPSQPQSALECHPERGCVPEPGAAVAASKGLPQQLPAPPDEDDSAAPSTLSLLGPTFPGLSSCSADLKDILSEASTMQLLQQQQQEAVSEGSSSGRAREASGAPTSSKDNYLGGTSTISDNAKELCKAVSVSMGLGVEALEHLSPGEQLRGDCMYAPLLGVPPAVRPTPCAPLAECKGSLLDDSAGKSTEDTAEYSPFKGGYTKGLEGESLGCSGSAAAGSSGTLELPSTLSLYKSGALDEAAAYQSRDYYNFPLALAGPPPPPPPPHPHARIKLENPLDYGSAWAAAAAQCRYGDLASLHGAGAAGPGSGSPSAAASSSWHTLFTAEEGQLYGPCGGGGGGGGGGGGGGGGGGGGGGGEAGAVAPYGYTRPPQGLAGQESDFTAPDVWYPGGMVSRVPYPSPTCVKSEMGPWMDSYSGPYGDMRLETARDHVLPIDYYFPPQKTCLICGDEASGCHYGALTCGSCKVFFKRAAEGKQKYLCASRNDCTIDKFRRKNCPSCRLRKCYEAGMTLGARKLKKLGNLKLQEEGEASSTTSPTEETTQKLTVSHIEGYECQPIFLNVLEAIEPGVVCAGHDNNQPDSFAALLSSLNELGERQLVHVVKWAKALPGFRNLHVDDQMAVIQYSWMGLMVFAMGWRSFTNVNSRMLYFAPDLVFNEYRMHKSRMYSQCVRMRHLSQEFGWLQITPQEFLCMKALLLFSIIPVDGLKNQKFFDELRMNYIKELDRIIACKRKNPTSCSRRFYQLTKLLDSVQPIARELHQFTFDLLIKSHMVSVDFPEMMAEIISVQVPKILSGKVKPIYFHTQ
# TEST SUMMARY: Androgen Receptor ELISA assay (PathScan AR ELISA) in VCaP cells: AR degradation, Dmax and DC50
# Type: cell-based
# ASSAY CONDITIONS: VCaP, VCaP cells; Table 36; read-out: VCaP Dmax (%)
Please provide measured Dmax for the entries that follow.

See these solved cases before continuing.
{"columns": ["MOLECULE", "TARGET OR TEST SYSTEM", "Dmax"],
 "data": [
  ["Cc1ncsc1-c1ccc(CNC(=O)[C@@H]2C[C@@H](O)CN2C(=O)[C@@H](NC(=O)CN2CCN(CCOc3ccc(C(=O)N[C@H]4C(C)(C)[C@H](Oc5ccc(C#N)c(Cl)c5)C4(C)C)cc3)CC2)C(C)(C)C)cc1 [Example 645]", "Androgen Receptor (Homo sapiens, UniProt P10275)", "51 to 70%"],
  ["CC(C)(C)c1ccc(CNC(=O)[C@@H]2C[C@@H](O)CN2C(=O)[C@@H](NC(=O)COCCN2CCN(c3ccc(C(=O)N[C@H]4C(C)(C)[C@H](Oc5ccc(C#N)c(Cl)c5)C4(C)C)cn3)CC2)C(C)(C)C)cc1 [Example 776]", "Androgen Receptor (Homo sapiens, UniProt P10275)", "< 25%"],
  ["CC(C)[C@H](OCCN1CCN(c2ccc(C(=O)N[C@H]3C(C)(C)[C@H](Oc4ccc(C#N)c(Cl)c4)C3(C)C)cn2)CC1)C(=O)N[C@H](C(=O)N1C[C@H](O)C[C@H]1C(=O)NCc1ccc(Cl)cc1)C(C)(C)C [Example 742]", "Androgen Receptor (Homo sapiens, UniProt P10275)", "< 25%"]
]}

Provide each entry's Dmax from the list below.
1. Cc1ncsc1-c1ccc([C@H](C)NC(=O)[C@@H]2C[C@@H](OC(=O)CCC(=O)O)CN2C(=O)[C@@H](NC(=O)COCCN2CCN(c3ccc(C(=O)N[C@H]4C(C)(C)[C@H](Oc5ccc(C#N)c(Cl)c5)C4(C)C)cn3)CC2)C(C)(C)C)cc1 [Example 862]
2. Cc1ncsc1-c1ccc([C@H](C)NC(=O)C2C[C@@H](O)CN2C(=O)[C@@H](NC(=O)COCCN2CCN(c3ccc(C(=O)N[C@H]4C(C)(C)[C@H](Oc5ccc(C#N)c(Cl)c5)C4(C)C)cn3)C[C@H]2CO)C(C)(C)C)cc1 (some centres unmarked) [Example 788]

["> 71%", "> 71%"]

Provide each entry's Dmax from the list below.
1. Cc1ncsc1-c1ccc([C@H](C)NC(=O)[C@@H]2C[C@@H](O)CN2C(=O)[C@@H](NC(=O)CO[C@@H](C)CN2CCN(c3ccc(C(=O)N[C@H]4C(C)(C)[C@H](Oc5ccc(C#N)c(Cl)c5)C4(C)C)cc3)CC2)C(C)(C)C)cc1 [Example 639]
2. CO[C@@H]1C[C@@H](C(=O)N(C)Cc2ccc(-c3scnc3C)cc2)N(C(=O)[C@@H](N(C)C(=O)COCCCCCN(C)c2ccc(C(=O)N[C@H]3C(C)(C)[C@H](Oc4ccc(C#N)c(C(F)(F)F)c4)C3(C)C)nc2)C(C)(C)C)C1 [Example 718]
3. Cc1ncsc1-c1ccc([C@H](C)NC(=O)[C@@H]2C[C@@H](O)CN2C(=O)[C@@H](NC(=O)CN2CCN(CCC3CCN(c4ccc(C(=O)N[C@H]5C(C)(C)[C@H](Oc6ccc(C#N)c(Cl)c6)C5(C)C)cn4)CC3)CC2)C(C)(C)C)cc1 [Example 833]

1: > 71%; 2: < 25%; 3: > 71%
